# test: anti-His antibody binders, primary screen, artefact control for SMM control protein annotation, biochemical, small-molecule microarray, 635 nm fluorescence (AID 1128);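 note: score merges feature fluorescence with signal-to-noise for each printed compound spot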
# details: anti-His Alexa647 antibody binding, higher = more signal
property: composite z-score

molecule | measured number
C=CCC(OC(C)=O)[C@@H]1[C@@H](N(Cc2cc3ccccc3o2)C(=O)Cc2ccc(F)cc2)c2cc(OCCCO)ccc2N1C(=O)c1ccc2ccccc2c1 (some centres undefined) | -0.232
COC(=O)[C@@]1(Cc2ccc(OC)cc2)[C@H]2c3cc(C(=O)N4CCCC4)n(Cc4c(-c5ccccc5)noc4C)c3C[C@H]2CN1C(=O)c1ccccc1 | 1.45
CC(C)(C)OC(=O)CC[C@]1(C(=O)NCC(O)CO)N=C(c2ccc(OCCCO)cc2)O[C@H]1c1ccccc1 (some centres undefined) | 0.872
COc1ccc([Si](C)(C)[C@@H]2[C@@H](CC(=O)N(CCO)Cc3ccccc3)O[C@]3(C(=O)N(Cc4cccc(N5CCOC5=O)c4)c4ccccc43)[C@H]2C)cc1 | 1.78

* * *

# measurement target: Neurogenic locus notch homolog protein 2 (Homo sapiens)
# test: Notch2 binders on small-molecule microarrays, primary screen, biochemical, small-molecule microarray, 635 nm fluorescence, stem cell growth factors (AID 1073)
# details: Notch2 binding, higher = more signal
We begin with a simple list: items and their reported composite z-score.
property: composite z-score

compound | property | result
O=C1OCCC/C=C\[C@H]2OC34C=CCN(CCN5CCOCC5)C(=O)[C@H]3N(CCCCCCO)C(=O)[C@@H]4C12 (some centres not stated) | composite z-score | -0.0784
Cc1ccccc1C(O)C1C=CC2C(=O)N(C)C(=O)C2N1N(c1ccccc1)c1ccccc1 (configuration not stated) | composite z-score | 0.483
CC(=O)NCCCC[C@@H]1NC(=O)[C@@H]2C[C@H](C(=O)NCCCC[N+](C)(C)C)[C@H](c3ccc(O)cc3)N2C1=O | composite z-score | -0.188
COC(=O)[C@@]1(Cc2ccc(OC)cc2)[C@H]2c3cc(C(=O)N(C)C)n(CCO)c3C[C@H]2CN1C(=O)c1ccccc1 | composite z-score | 0.993
CC(=O)NCCCC[C@@H]1NC(=O)[C@H]2C[C@@H](C(=O)NCCCC[N+](C)(C)C)[C@@H](c3cccc(OCCO)c3)N2C1=O | composite z-score | 0.165
C=CCOC(=O)[C@H]1[C@@H]2C(=O)O[C@@H](c3ccccc3)[C@@H](c3ccccc3)N2[C@@H](c2ccc(OCCOC(=O)[C@H]3C[C@H]4C(=O)N[C@@H](CCCCNC(C)=O)C(=O)N4[C@H]3c3ccc(O)cc3)cc2)[C@]12C(=O)Nc1ccccc12 | composite z-score | 0.307
COc1ccc([Si](C)(C)[C@H]2[C@H](CCn3cc([C@H](O)c4ccccc4)nn3)O[C@@]3(C(=O)N(Cc4ccc(N5C(=O)c6cccc7cccc5c67)cc4)c4ccccc43)[C@@H]2C)cc1 | composite z-score | -0.715
CC(C)C(=C=CC[C@H](O)c1cccc(OCCO)c1)C[C@H](O)c1cc(Cl)cc(Cl)c1O | composite z-score | -0.022
COc1ccc(CCN2C(=O)[C@@]3(Cc4ccccc42)c2ccccc2C(=O)N(Cc2ccccc2OC)[C@H]3c2ccc(CO)cc2)cc1 | composite z-score | -0.779
CCCCN1CC=CC23O[C@@H]4/C=C\CCC(C)OC(=O)C4[C@H]2C(=O)N(C(CO)C(C)C)[C@@H]3C1=O (some centres not stated) | composite z-score | -0.358
COC(=O)Cn1c(C(=O)N(C)C)cc2c1C[C@H]1CN(C(=O)c3ccccc3)[C@@](Cc3ccc(F)cc3)(C(=O)OC)[C@@H]21 | composite z-score | 1.65
CN(C)C(=O)C1N=C(c2ccc(OCCCO)cc2)N(c2ccccc2)O1 (configuration not stated) | composite z-score | 1.19
C=C(COC)/C(=C/C[C@H](OC(=O)c1ccncc1)c1ccccc1OCCO)c1cnc2ccccc2c1 | composite z-score | 1.34
CC(C)C[C@@H]1NC(=O)[C@@H]2C[C@H](C(=O)NCCCCN(C)C)[C@H](c3cccc(OCCO)c3)N2C1=O | composite z-score | -0.416
COC(=O)[C@@]1(Cc2ccccc2)[C@H]2c3cc(C(=O)N(C)C)n(CCN4CNCC4=O)c3C[C@H]2CN1C(=O)c1ccccc1 | composite z-score | -0.0763
COC(=O)[C@@]1(Cc2ccc(OC)cc2)[C@H]2c3cc(C(=O)N4CCCC4)n(Cc4c(-c5ccccc5)noc4C)c3C[C@H]2CN1C(=O)c1ccccc1 | composite z-score | 1.71
O=C1NC(=O)C2C1C=CC(C(O)c1ccco1)N2Nc1ccccn1 (configuration not stated) | composite z-score | 0.076

* * *

# measurement target: Dihydroorotate dehydrogenase (quinone), mitochondrial (Plasmodium falciparum (isolate 3D7))
# test: PfDHODH enzyme inhibitors, primary screen, biochemical, C-terminal His tag, absorbance 600 nm (AID 1175);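 note: recombinant parasite enzyme with a five histidine tag at its C terminus; test concentration not given here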
# details: DCIP absorbance 600 nm, higher = more signal, called active from +8 up or from −8 down
Binning rule for recorded composite z-score: low (below -0.09), medium (-0.09 to below 0.2), high (0.2 or more)

compound | class label
CCOC(=O)C[C@H]1[C@H](OC(=O)c2ccccc2-c2ccccc2)[C@@H](NC(=O)C2CCCCC2)c2cc(OCCCO)ccc2N1C(=O)Cc1ccc(OC)cc1 | medium
C=CC[C@@]1(C(=O)N2CCOCC2)N=C(c2ccc(OCCCO)cc2)O[C@@H]1c1ccccc1CN=[N+]=[N-] | medium
O=C1O[C@H](c2ccccc2)[C@H](c2ccccc2)N2[C@H]1[C@@H](C(=O)Nc1nc3ccccc3s1)[C@]1(C(=O)Nc3ccc(C#CC4(O)CCCCCC4)cc31)[C@H]2c1ccccc1OCCO | low
O=C1NC(=O)C2C1C=CC(C(O)c1cccc3ccccc13)N2Nc1ccc(Cl)cc1Cl (stereo unspecified) | high
N#Cc1ccc(C(O)C2C=CC3C(=O)N(c4ccccc4)C(=O)C3N2Nc2ccccc2)cc1 (stereo unspecified) | low
Cc1cc(C)c(C(O)C2C=CC3C(=O)NC(=O)C3N2Nc2ccc(Cl)cc2Cl)c(C)c1 (stereo unspecified) | medium
NC(N)=NCCCn1cc(CNC(=O)[C@@H](N)Cc2ccccc2)nn1 | low
CN1C(=O)C2C=CC(C(O)COCc3ccccc3)N(N(c3ccccc3)c3ccccc3)C2C1=O (stereo unspecified) | medium
C=CCNC(=O)[C@H]1[C@@H]2C(=O)O[C@@H](c3ccccc3)[C@@H](c3ccccc3)N2[C@@H](c2ccc(O)cc2)[C@]12C(=O)N(C(=O)OCCOC)c1ccccc12 | high
CCCCC=C[C@@H](NC(=O)c1ccc(-c2ccccc2)cc1)c1ccccc1 | high

* * *

We begin with a simple list: items and their reported composite z-score.
# measurement target: Albumin (Bos taurus)
# test: bovine serum albumin binders on microarray, profiling panel, artefact control for SMM control protein annotation, biochemical, small-molecule microarray, Alexa647 label, 635/667 nm fluorescence (AID 1118);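 note: score merges 667 nm emission intensity and signal-to-noise per printed compound spot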
# details: BSA-A647 binding, fluorescence 635 nm, higher = more signal
property: composite z-score

compound | measurement target | measured number
C=CCC(OC(C)=O)[C@@H]1[C@@H](N(Cc2ccc(-c3cccc(C(F)(F)F)c3)o2)C(=O)c2ccc(C)cc2)c2cc(OCCCO)ccc2N1C(=O)c1ccc2ccccc2c1 (stereo partly drawn) | Albumin (Bos taurus) | 0.149
NC(=O)NCC#Cc1ccc2c(c1)[C@]1(C(=O)N2)[C@H](C(=O)O)[C@H]2C(=O)O[C@H](c3ccccc3)[C@H](c3ccccc3)N2[C@@H]1c1ccc(OCCO)cc1 | Albumin (Bos taurus) | 0.351
O=C1NC(=O)C2C1C=CC(C(O)c1cccc3ccccc13)N2Nc1ccc(Cl)cc1Cl (stereo not drawn) | Albumin (Bos taurus) | 0.205
NC(=O)N1C(=O)C2C(C1=O)C1C=C(CCCO)C2C(c2cccs2)N1Cc1cccc(OC(F)(F)F)c1 (stereo not drawn) | Albumin (Bos taurus) | 0.729
COc1cc2c(cc1OC)CN(C(=O)[C@@H]1[C@H]3C(=O)O[C@H](c4ccccc4)[C@H](c4ccccc4)N3[C@H](c3ccc(OCCO)cc3)[C@@]13C(=O)Nc1ccccc13)CC2 | Albumin (Bos taurus) | 0.299
C=C[C@@H](OC)[C@H](OC(=O)Nc1ccc(SC)cc1)c1ccc(O)c(F)c1 | Albumin (Bos taurus) | 0.622
COC(=O)c1c2oc(c1C(=O)OC)C(=O)N(C)Cc1cn(nn1)C[C@H](Cc1ccccc1)NC(=O)N[C@H](CO)CC2 | Albumin (Bos taurus) | -0.56
CC(C)(C)OC(=O)CC[C@]1(C(=O)NCc2ccccc2)N=C(c2ccc(OCCCO)cc2)O[C@H]1c1ccccc1CN=[N+]=[N-] | Albumin (Bos taurus) | 0.75
C=CCOC(=O)[C@H]1[C@@H]2C(=O)O[C@@H](c3ccccc3)[C@@H](c3ccccc3)N2[C@@H](c2ccc(OCCOC(=O)[C@H]3C[C@H]4C(=O)N[C@@H](CC(C)C)C(=O)N4[C@H]3c3cccc(OCCO)c3)cc2)[C@]12C(=O)Nc1ccc(I)cc12 | Albumin (Bos taurus) | -0.172
C=CCNC(=O)[C@H]1[C@@H]2C(=O)O[C@@H](c3ccccc3)[C@@H](c3ccccc3)N2[C@@H](c2ccc(O)cc2)[C@]12C(=O)N(C(=O)OCCOC)c1ccccc12 | Albumin (Bos taurus) | 0.299
O=C(N1CCCCC1)[C@@]1(CCS(=O)(=O)c2ccccc2)COC(c2ccc(OCCCO)cc2)=N1 | Albumin (Bos taurus) | 0.107
COC(=O)[C@@]1(Cc2ccc(OC)cc2)[C@H]2c3cc(C(=O)N(C)C)n(C[C@H](O)CO)c3C[C@H]2CN1C(=O)c1ccccc1 | Albumin (Bos taurus) | 0.956
O=C(NCC(F)(F)F)[C@@H]1c2ccccc2C(=O)N(Cc2cc(F)cc(C(F)(F)F)c2)[C@H]1c1ccc(CO)cc1 | Albumin (Bos taurus) | -0.463
COCCOC(=O)N1C(=O)[C@@]2(c3cc(C#CCCO)ccc31)[C@H](C(=O)Nc1nc3ccccc3s1)[C@H]1C(=O)O[C@H](c3ccccc3)[C@H](c3ccccc3)N1[C@@H]2c1ccccc1OCCO | Albumin (Bos taurus) | 0.623
CCCC[C@@H]1C[C@H]1[C@@H](NC(=O)Cc1ccccc1)c1ccc(-c2ccccc2)cc1 | Albumin (Bos taurus) | 0.83
COCCOC(=O)N1C(=O)[C@@]2(c3cc(C#CC4=CCCCC4)ccc31)[C@H](c1ccccc1OCCO)N1[C@H](c3ccccc3)[C@H](c3ccccc3)OC(=O)[C@H]1[C@@H]2C(=O)N1CCCCCCC1 | Albumin (Bos taurus) | -0.0107
COc1cc(OC)c(C(O)C2C=CC3C(=O)N(c4ccccc4)C(=O)C3N2Nc2ccccc2)cc1Br (stereo not drawn) | Albumin (Bos taurus) | 0.911
Cc1ccc(S[C@]2(C(=O)NCC(F)(F)F)CC(=O)N(Cc3ccccc3)[C@@H]2c2ccc(CO)cc2I)cc1 | Albumin (Bos taurus) | 0.132
